IC50 listing for selected molecules.
Test system: MCF7
Test: Cytotoxicity against human MCF7 cells assessed as cell viability after 96 hrs by SRB assay
Assay type: functional, cell-based
Conditions: Homo sapiens, MCF7, 96 h
Give just the numeric value; µM need not be written.

Solved cases below.
INSERT INTO results (mol, unit_string, measurement) VALUES
  ('C=CCN(CC#C[C@@H](O)[C@]12CC[C@@H](C(=C)C)[C@@H]1[C@H]1CC[C@@H]3[C@@]4(C)CC[C@H](OC(C)=O)C(C)(C)[C@@H]4CC[C@@]3(C)[C@]1(C)CC2)CC=C', 'µM', 31.1),
  ('C=C(C)[C@@H]1CC[C@]2([C@@H](O)C#CCN(Cc3ccccc3)Cc3ccccc3)CC[C@]3(C)[C@H](CC[C@@H]4[C@@]5(C)CC[C@H](OC(C)=O)C(C)(C)[C@@H]5CC[C@]43C)[C@@H]12', 'µM', 27.2),
  ('C=C(C)[C@@H]1CC[C@]2([C@H](O)C#CCN3CCCCCC3)CC[C@]3(C)[C@H](CC[C@@H]4[C@@]5(C)CC[C@H](OC(C)=O)C(C)(C)[C@@H]5CC[C@]43C)[C@@H]12', 'µM', 13.5),
  ('C=C(C)[C@@H]1CC[C@]2([C@H](O)C#CCN3CCNCC3)CC[C@]3(C)[C@H](CC[C@@H]4[C@@]5(C)CC[C@H](OC(C)=O)C(C)(C)[C@@H]5CC[C@]43C)[C@@H]12.Cl', 'µM', 2.5),
  ('C=C(C)[C@@H]1CC[C@]2([C@H](O)C#CCN(C)C)CC[C@]3(C)[C@H](CC[C@@H]4[C@@]5(C)CC[C@H](OC(C)=O)C(C)(C)[C@@H]5CC[C@]43C)[C@@H]12.Cl', 'µM', 3.7);

QUERY: Supply IC50 value. Item: `C=C(C)[C@@H]1CC[C@]2([C@H](O)C#CCN3CCCC3)CC[C@]3(C)[C@H](CC[C@@H]4[C@@]5(C)CCC(=O)C(C)(C)[C@@H]5CC[C@]43C)[C@@H]12`
RESULT: 3.1

QUERY: Report IC50 for `C=C(C)[C@@H]1CC[C@]2([C@H](O)C#CCN3CCOCC3)CC[C@]3(C)[C@H](CC[C@@H]4[C@@]5(C)CC[C@H](OC(C)=O)C(C)(C)[C@@H]5CC[C@]43C)[C@@H]12.Cl`
RESULT: 7.7

QUERY: Read off the recorded IC50 for `C=C(C)[C@@H]1CC[C@]2([C@H](O)C#CCN3CCSCC3)CC[C@]3(C)[C@H](CC[C@@H]4[C@@]5(C)CC[C@H](OC(C)=O)C(C)(C)[C@@H]5CC[C@]43C)[C@@H]12`
RESULT: 3.8

QUERY: Recall and state the measured IC50 for `C=C(C)[C@@H]1CC[C@]2([C@H](O)C#CCN(CCC)CCC)CC[C@]3(C)[C@H](CC[C@@H]4[C@@]5(C)CC[C@H](OC(C)=O)C(C)(C)[C@@H]5CC[C@]43C)[C@@H]12` .
RESULT: 16.5

* * *

Tested on: A549
Experiment: Cytotoxicity against human A549 cells assessed as cell viability after 96 hrs by SRB assay
Format: functional, cell-based
Conditions: Homo sapiens, A549, 96 h
OUTCOME MEASURE: IC50 (µM)
Provide the reading as a plain figure in µM.

Worked examples, 2 compounds total:
INSERT INTO assay_data (mol, measurement) VALUES
  ('C=C(C)[C@@H]1CC[C@]2([C@H](O)C#CCN3CCNCC3)CC[C@]3(C)[C@H](CC[C@@H]4[C@@]5(C)CC[C@H](OC(C)=O)C(C)(C)[C@@H]5CC[C@]43C)[C@@H]12.Cl', 6.5),
  ('C=C(C)[C@@H]1CC[C@]2([C@@H](O)CCCN(C(C)C)C(C)C)CC[C@]3(C)[C@H](CC[C@@H]4[C@@]5(C)CC[C@H](O)C(C)(C)[C@@H]5CC[C@]43C)[C@@H]12', 2.2);

QUERY: Write down IC50 measured for item `C=C(C)[C@@H]1CC[C@]2([C@@H](O)C#CCN3CCCC3)CC[C@]3(C)[C@H](CC[C@@H]4[C@@]5(C)CC[C@H](OC(C)=O)C(C)(C)[C@@H]5CC[C@]43C)[C@@H]12`
RESULT: 12

QUERY: Specify reported IC50 for the compound shown: `C=C(C)[C@@H]1CC[C@]2([C@H](O)C#CCN3CCCCCC3)CC[C@]3(C)[C@H](CC[C@@H]4[C@@]5(C)CC[C@H](OC(C)=O)C(C)(C)[C@@H]5CC[C@]43C)[C@@H]12`
RESULT: 47

QUERY: Indicate the recorded IC50 value for this compound: `C#C[C@H](O)[C@]12CC[C@@H](C(=C)C)[C@@H]1[C@H]1CC[C@@H]3[C@@]4(C)CC[C@H](OC(C)=O)C(C)(C)[C@@H]4CC[C@@]3(C)[C@]1(C)CC2`
RESULT: 42.2

The origin of these recorded values is ChEMBL document CHEMBL2321859.
